# Tested on: OVCAR-5 ovarian
# assay-notes: NCI tumour cell line growth inhibition, 48 h
value-type: TGI (µM)
Give bare numbers, in µM.

Sample records with TGI:
CC(=O)ON1CCCC(P(=O)(OCOC(=O)C(C)(C)C)OCOC(=O)C(C)(C)C)C1=O (stereo not given) ... 20.3
CCOC1C=CC(=O)C(CO)O1 (stereo not given) ... 35.2

Batch request: TGI for each of the following molecules.
1. C[C@]12CC[C@H]3[C@@H](CCC4=CC(=O)CC[C@@]43C)[C@@H]1CC[C@@H]2c1csc(N)n1
2. Cc1ccc2cccc(-c3cccc4ccccc34)c2n1

**A:**
[38.7, 55.5]
